Each entry below carries its recorded remaining at 24 h.
experiment: Stability of compound in glutathione at pH 7.4 after 24 hrs by LC-MS analysis; type: physicochemical; conditions: read-out: Stability
observedProperty: remaining at 24 h

smilesRepr	observedProperty	measured
COc1cccc2[nH]c(C(=O)N[C@@H](CC(C)C)C(=O)N[C@@H](C[C@@H]3CCCNC3=O)C(=O)COC(=O)c3c(C(F)(F)F)cc(C)nc3C)cc12	remaining at 24 h	> 80%
COc1cccc2[nH]c(C(=O)N[C@@H](CC(C)C)C(=O)N[C@@H](C[C@@H]3CCCNC3=O)C(=O)COC(=O)c3c(C)cc(C)nc3C)cc12	remaining at 24 h	> 80%

Sourced from ChEMBL document CHEMBL5154637
